System: OVCAR-5
Method description: NCI-60 screen (SRB)
Assay type: cell-based, human
Assay conditions: OVCAR-5 (Ovarian Cancer), 10 µM, 48 h; negative = cell death vs time zero
Reported property: percent cell growth (%)
Response body: numeric value in %, unit text excluded.

# lookup: percent cell growth of CC/N=C1\NC(=O)/C(=C\c2c[nH]c3ncccc23)S1
8.7

Follow-up item: C=CC/N=C1\NC(=O)/C(=C\c2c[nH]c3ncccc23)S1
5.3

Try this compound next: Cl.O=C1NC(=NCCc2ccccc2)SC1=Cc1c[nH]c2ncccc12 (mixture of isomers) [DJ4-HCl]
18.1

Let us now turn to O=C1N/C(=N\CCc2ccccc2)S/C1=C/c1c[nH]c2ncccc12
37.8

----------
Test system: EKVX
Method description: NCI-60 screen (SRB)
Assay type: cell-based, human
Assay conditions: EKVX (Non-Small Cell Lung Cancer), 10 µM, 48 h; negative = cell death vs time zero
Would you mind telling me the reported percent cell growth of each entry?
All answers are understood in %, so give the number only.

Lab request: please report percent cell growth under test system EKVX for C=CC/N=C1\NC(=O)/C(=C\c2c[nH]c3ncccc23)S1 [DJ-Allyl]
30.5

Try CC/N=C1\NC(=O)/C(=C\c2c[nH]c3ncccc23)S1 [DJE4] next.
14.1

// next record Cl.O=C1NC(=NCCc2ccccc2)SC1=Cc1c[nH]c2ncccc12 (mixture of isomers) [DJ4-HCl]
40.9

And then O=C1N/C(=N\CCc2ccccc2)S/C1=C/c1c[nH]c2ncccc12 [DJ4] , what is it?
46.0

----------
Please go through the items and note down their percent cell growth.
System: TK-10
Method description: NCI-60 screen (SRB)
Format: cell-based, human
Assay conditions: TK-10 (Renal Cancer), 10 µM, 48 h; negative = cell death vs time zero
Write down the numeric answer in % and omit the unit.

Recorded percent cell growth for O=C1N/C(=N\CCc2ccccc2)S/C1=C/c1c[nH]c2ncccc12 , please?
34.2

How about this molecule: CC/N=C1\NC(=O)/C(=C\c2c[nH]c3ncccc23)S1
−3.8

Also Cl.O=C1NC(=NCCc2ccccc2)SC1=Cc1c[nH]c2ncccc12 (mixture of isomers) [DJ4-HCl] ?
18.8

Likewise for C=CC/N=C1\NC(=O)/C(=C\c2c[nH]c3ncccc23)S1 ?
1.7

----------
I'd appreciate it if you could supply percent cell growth values for the items below.
Tested on: SR
Method description: NCI-60 screen (SRB)
Format: cell-based, human
Assay conditions: SR (Leukemia), 10 µM, 48 h; negative = cell death vs time zero
Expressed in %, but write only the number.

Using the record for O=C1N/C(=N\CCc2ccccc2)S/C1=C/c1c[nH]c2ncccc12 [DJ4] , report its percent cell growth.
5.6

Would you mind doing Cl.O=C1NC(=NCCc2ccccc2)SC1=Cc1c[nH]c2ncccc12 (mixture of isomers) [DJ4-HCl] as well?
−1.5

Repeat for the following compound: CC/N=C1\NC(=O)/C(=C\c2c[nH]c3ncccc23)S1 [DJE4]
0.4

Also C=CC/N=C1\NC(=O)/C(=C\c2c[nH]c3ncccc23)S1 [DJ-Allyl] , if possible.
−9.5

----------
Test system: DU-145
Method description: NCI-60 screen (SRB)
Assay type: cell-based, human
Assay conditions: DU-145 (Prostate Cancer), 10 µM, 48 h; negative = cell death vs time zero
Reported property: percent cell growth (%)
Answer format: numeric, % implied, no suffix.

Please give the measured percent cell growth for this compound: C=CC/N=C1\NC(=O)/C(=C\c2c[nH]c3ncccc23)S1
12.7

Could you do the same for O=C1N/C(=N\CCc2ccccc2)S/C1=C/c1c[nH]c2ncccc12 , please?
20.7

Request: Cl.O=C1NC(=NCCc2ccccc2)SC1=Cc1c[nH]c2ncccc12 (mixture of isomers) [DJ4-HCl]
15.3

Another compound to check: CC/N=C1\NC(=O)/C(=C\c2c[nH]c3ncccc23)S1
9.9

----------
Target or system: ROCK2 (Homo sapiens)
Sequence (O75116 whole entry): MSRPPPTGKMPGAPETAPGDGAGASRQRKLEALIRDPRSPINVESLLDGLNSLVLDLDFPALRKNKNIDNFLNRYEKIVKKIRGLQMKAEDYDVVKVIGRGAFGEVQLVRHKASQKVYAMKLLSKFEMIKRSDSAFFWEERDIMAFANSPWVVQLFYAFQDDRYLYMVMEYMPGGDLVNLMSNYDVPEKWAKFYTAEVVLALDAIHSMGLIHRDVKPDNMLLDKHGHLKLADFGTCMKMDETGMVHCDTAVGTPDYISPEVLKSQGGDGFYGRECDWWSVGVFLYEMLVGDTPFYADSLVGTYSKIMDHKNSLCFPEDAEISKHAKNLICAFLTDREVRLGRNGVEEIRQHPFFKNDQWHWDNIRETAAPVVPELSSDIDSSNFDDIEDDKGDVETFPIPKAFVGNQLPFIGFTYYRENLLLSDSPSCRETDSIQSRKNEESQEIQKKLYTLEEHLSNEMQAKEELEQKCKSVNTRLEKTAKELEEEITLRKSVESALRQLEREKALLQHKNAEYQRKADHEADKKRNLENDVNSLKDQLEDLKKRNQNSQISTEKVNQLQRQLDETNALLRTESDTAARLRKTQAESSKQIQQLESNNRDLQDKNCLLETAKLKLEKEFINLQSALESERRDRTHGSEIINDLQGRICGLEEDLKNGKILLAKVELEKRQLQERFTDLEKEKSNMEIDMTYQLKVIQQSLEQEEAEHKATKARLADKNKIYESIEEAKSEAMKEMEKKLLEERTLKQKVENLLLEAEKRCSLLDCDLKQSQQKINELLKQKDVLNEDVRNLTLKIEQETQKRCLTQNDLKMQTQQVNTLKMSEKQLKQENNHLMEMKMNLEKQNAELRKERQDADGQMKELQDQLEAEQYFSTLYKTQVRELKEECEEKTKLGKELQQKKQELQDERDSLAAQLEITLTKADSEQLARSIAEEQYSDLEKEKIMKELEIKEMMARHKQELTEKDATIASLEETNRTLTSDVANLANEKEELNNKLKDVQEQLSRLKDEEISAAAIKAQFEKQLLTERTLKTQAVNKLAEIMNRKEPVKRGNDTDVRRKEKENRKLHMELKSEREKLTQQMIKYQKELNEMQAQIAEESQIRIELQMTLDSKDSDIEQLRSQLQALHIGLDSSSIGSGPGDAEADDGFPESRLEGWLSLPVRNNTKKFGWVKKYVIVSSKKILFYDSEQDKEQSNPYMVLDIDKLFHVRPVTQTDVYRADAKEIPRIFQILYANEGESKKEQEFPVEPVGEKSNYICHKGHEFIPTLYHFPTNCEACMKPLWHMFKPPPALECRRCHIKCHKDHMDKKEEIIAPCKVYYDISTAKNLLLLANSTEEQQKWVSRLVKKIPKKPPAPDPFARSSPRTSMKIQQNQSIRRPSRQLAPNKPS
Method description: Cell-free biochemical kinase activity assay (pMYPT1 immunoblot)
Parameters: purchased Invitrogen
Assay conditions: ROCK2, 1 µM
Reported property: inhibition of kinase activity (qualitative immunoblot)

[
  {
    "Compound": "O=C1N/C(=N\\Cc2ccccc2)S/C1=C/c1c[nH]c2ncccc12 [DJ110]",
    "Reading": "significantly inhibit"
  },
  {
    "Compound": "O=C1N/C(=N\\CCc2ccccc2)S/C1=C/c1c[nH]c2ncccc12 [DJ4]",
    "Reading": "significantly inhibit"
  }
]

----------
System: CCRF-CEM
Method description: NCI-60 screen (SRB)
Format: cell-based, human
Assay conditions: CCRF-CEM (Leukemia), 10 µM, 48 h; negative = cell death vs time zero
Reported property: percent cell growth (%)
Express your answer in %, writing the number without its unit.

Param item = C=CC/N=C1\NC(=O)/C(=C\c2c[nH]c3ncccc23)S1 ; retrieve measured percent cell growth.
7.1

Now the compound Cl.O=C1NC(=NCCc2ccccc2)SC1=Cc1c[nH]c2ncccc12 (mixture of isomers) [DJ4-HCl]
5.5

CC/N=C1\NC(=O)/C(=C\c2c[nH]c3ncccc23)S1 ?
3.0

Next record, please: O=C1N/C(=N\CCc2ccccc2)S/C1=C/c1c[nH]c2ncccc12
9.9

----------
Target or system: MRCKα (Homo sapiens, UniProt Q5VT25)
Construct: purchased Invitrogen
Sequence (Q5VT25 whole entry): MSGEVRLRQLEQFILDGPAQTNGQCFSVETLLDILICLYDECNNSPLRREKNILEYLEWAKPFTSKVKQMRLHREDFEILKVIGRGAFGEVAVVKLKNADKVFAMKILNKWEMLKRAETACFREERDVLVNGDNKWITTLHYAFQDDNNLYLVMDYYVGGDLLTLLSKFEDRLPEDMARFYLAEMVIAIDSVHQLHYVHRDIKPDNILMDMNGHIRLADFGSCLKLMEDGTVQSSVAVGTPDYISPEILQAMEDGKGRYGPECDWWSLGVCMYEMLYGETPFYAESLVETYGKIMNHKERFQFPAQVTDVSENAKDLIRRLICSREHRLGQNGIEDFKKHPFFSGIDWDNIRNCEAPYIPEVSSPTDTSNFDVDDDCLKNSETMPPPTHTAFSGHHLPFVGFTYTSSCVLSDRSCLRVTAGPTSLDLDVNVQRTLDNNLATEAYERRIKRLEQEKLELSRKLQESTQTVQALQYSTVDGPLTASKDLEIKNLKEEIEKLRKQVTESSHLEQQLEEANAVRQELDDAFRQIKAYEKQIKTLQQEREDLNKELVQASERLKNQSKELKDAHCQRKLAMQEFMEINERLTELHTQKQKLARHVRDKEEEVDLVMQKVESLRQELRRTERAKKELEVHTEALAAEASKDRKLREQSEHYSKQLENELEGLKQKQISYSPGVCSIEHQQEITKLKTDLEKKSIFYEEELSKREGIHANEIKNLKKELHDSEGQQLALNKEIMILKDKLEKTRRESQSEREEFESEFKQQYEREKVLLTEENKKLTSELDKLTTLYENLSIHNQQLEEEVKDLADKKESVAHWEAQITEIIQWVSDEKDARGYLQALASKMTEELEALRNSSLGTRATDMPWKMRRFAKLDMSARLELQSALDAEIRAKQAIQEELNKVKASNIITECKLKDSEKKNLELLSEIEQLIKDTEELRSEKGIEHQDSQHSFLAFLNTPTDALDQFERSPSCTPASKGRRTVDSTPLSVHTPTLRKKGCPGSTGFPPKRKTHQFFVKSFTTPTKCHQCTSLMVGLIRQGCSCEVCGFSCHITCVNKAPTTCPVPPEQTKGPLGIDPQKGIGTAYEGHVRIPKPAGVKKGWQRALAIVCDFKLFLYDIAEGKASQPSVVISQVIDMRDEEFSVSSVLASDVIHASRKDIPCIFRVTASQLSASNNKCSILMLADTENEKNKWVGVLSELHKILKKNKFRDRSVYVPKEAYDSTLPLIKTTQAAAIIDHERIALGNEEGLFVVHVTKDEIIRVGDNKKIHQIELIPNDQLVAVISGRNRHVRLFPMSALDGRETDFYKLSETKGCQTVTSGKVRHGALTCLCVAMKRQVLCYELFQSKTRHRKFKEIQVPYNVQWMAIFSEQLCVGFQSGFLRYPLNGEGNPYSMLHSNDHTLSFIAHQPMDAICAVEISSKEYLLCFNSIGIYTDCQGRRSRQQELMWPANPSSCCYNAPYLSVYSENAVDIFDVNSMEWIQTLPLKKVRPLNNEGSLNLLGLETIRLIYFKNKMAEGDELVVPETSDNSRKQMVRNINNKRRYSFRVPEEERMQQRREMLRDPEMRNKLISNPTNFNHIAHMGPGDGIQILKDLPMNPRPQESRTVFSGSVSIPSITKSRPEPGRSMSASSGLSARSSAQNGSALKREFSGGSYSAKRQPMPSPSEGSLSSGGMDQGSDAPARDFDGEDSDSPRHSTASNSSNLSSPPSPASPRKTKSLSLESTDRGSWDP
Method description: Cell-free biochemical kinase activity assay (pMYPT1 immunoblot)
Assay conditions: 1 µM
Reported property: inhibition of kinase activity (qualitative immunoblot)

Examples from the recorded data:
[
  {
    "Smiles": "O=C1N/C(=N\\CCc2ccccc2)S/C1=C/c1c[nH]c2ncccc12",
    "Reading": "significantly inhibit"
  },
  {
    "Smiles": "O=C1N/C(=N\\CCN2CCOCC2)S/C1=C/c1c[nH]c2ncccc12",
    "Reading": "minimal inhibition"
  },
  {
    "Smiles": "CC/N=C1\\NC(=O)/C(=C\\c2c[nH]c3ncccc23)S1",
    "Reading": "minimal inhibition"
  },
  {
    "Smiles": "O=C1N/C(=N\\Cc2ccccc2)S/C1=C/c1c[nH]c2ncccc12",
    "Reading": "significantly inhibit"
  }
]

Kindly review the next molecule as well.
Sample C=CC/N=C1\NC(=O)/C(=C\c2c[nH]c3ncccc23)S1 — what was its inhibition of kinase activity (qualitative immunoblot)?
minimal inhibition

----------
So I've got a bunch of compounds here, and I need their apoptosis (Q2 + Q3), caspase 3/7 values.
Tested on: MDA-MB-231 breast cancer cells
Method description: Caspase 3/7 assay (Muse)
Type: cell-based, human
Assay conditions: MDA-MB-231, 2.5 µM, 48 h (DMSO 6.2)
Description: Figure 8 DJ4 analogs induce cell cycle arrest and apoptotic cell death in MDA-MB-231 breast cancer cells. (A) DJ4 analogs induce cell cycle arrest in MDA-MB-231 breast cancer cells. […] (B) Apoptotic cell death by DJ4 analogs was evaluated by measuring caspase 3/7 activation in breast cancer cells. […] To examine whether the selected compounds induce apoptosis, we treated MDA-MB-231 breast cancer cells with 5 µM of each compound. […] The data were quantified by using FlowJo software (version 10).
The reply should be a number in %, with the unit left off.

Data request, read-out apoptosis (Q2 + Q3), caspase 3/7, for CC/N=C1\NC(=O)/C(=C\c2c[nH]c3ncccc23)S1 [DJE4]
13.4

Queued: O=C1N/C(=N\Cc2ccccc2)S/C1=C/c1c[nH]c2ncccc12 [DJ110]
64.4

Let us now turn to C=CC/N=C1\NC(=O)/C(=C\c2c[nH]c3ncccc23)S1 [DJ-Allyl]
18.1

Do the same for O=C1N/C(=N\CCc2ccccc2)S/C1=C/c1c[nH]c2ncccc12 [DJ4] please
52.9

Entry to check: O=C1N/C(=N\CCN2CCOCC2)S/C1=C/c1c[nH]c2ncccc12 [DJ-Morpholine]
8

----------
Test system: HL-60(TB)
Method description: NCI-60 screen (SRB)
Format: cell-based, human
Assay conditions: HL-60(TB) (Leukemia), 10 µM, 48 h; negative = cell death vs time zero
Provide the reported percent cell growth of each item.
I only need the number, in %, no unit after it.

Please look up its percent cell growth: O=C1N/C(=N\CCc2ccccc2)S/C1=C/c1c[nH]c2ncccc12
6.8

Now try C=CC/N=C1\NC(=O)/C(=C\c2c[nH]c3ncccc23)S1 .
−14.5

Entry to check: CC/N=C1\NC(=O)/C(=C\c2c[nH]c3ncccc23)S1
−22.4

Another compound to look at: Cl.O=C1NC(=NCCc2ccccc2)SC1=Cc1c[nH]c2ncccc12 (mixture of isomers) [DJ4-HCl]
−6.6

----------
System: H226
Method description: MTT cytotoxicity assay, 72 h
Assay type: cell-based
Assay conditions: Homo sapiens, NCI-H226, H226 NSCLC cells, plated to confluence, read-out: IC50 (mean cytotoxic concentration, MTT)
Reported property: pIC50
Hey, just a heads up that pIC50 is the negative log base 10 of the concentration in molar.

I'm curious: which pIC50 was measured for O=C1N/C(=N\CCc2ccccc2)S/C1=C/c1c[nH]c2ncccc12 [DJ4] tested on H226?
6.17
